So I've got a bunch of molecules here, and I need their pIC50 values.
Biological target: PI3K-α (PIK3CA) in MDA-MB-453 cells (Homo sapiens, UniProt P42336)
Sequence (P27986 2-724): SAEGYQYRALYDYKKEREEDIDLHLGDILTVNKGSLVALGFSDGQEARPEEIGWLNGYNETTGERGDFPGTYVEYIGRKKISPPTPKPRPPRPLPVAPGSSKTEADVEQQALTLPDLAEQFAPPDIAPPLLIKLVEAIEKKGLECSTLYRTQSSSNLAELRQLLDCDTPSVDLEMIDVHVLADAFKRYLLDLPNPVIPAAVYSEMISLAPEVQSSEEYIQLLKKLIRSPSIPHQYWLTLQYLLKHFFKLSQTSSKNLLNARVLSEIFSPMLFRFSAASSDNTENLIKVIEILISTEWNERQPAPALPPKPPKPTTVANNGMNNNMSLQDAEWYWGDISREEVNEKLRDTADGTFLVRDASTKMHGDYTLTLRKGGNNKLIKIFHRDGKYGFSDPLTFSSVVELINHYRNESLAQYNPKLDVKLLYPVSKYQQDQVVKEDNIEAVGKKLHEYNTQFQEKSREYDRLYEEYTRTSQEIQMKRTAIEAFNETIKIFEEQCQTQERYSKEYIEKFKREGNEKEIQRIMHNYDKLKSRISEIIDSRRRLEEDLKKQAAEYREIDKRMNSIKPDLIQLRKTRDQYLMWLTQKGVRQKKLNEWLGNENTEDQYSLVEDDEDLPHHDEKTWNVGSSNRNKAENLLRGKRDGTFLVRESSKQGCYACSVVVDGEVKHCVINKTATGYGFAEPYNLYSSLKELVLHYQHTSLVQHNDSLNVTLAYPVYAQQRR
Sequence (P42336 whole entry): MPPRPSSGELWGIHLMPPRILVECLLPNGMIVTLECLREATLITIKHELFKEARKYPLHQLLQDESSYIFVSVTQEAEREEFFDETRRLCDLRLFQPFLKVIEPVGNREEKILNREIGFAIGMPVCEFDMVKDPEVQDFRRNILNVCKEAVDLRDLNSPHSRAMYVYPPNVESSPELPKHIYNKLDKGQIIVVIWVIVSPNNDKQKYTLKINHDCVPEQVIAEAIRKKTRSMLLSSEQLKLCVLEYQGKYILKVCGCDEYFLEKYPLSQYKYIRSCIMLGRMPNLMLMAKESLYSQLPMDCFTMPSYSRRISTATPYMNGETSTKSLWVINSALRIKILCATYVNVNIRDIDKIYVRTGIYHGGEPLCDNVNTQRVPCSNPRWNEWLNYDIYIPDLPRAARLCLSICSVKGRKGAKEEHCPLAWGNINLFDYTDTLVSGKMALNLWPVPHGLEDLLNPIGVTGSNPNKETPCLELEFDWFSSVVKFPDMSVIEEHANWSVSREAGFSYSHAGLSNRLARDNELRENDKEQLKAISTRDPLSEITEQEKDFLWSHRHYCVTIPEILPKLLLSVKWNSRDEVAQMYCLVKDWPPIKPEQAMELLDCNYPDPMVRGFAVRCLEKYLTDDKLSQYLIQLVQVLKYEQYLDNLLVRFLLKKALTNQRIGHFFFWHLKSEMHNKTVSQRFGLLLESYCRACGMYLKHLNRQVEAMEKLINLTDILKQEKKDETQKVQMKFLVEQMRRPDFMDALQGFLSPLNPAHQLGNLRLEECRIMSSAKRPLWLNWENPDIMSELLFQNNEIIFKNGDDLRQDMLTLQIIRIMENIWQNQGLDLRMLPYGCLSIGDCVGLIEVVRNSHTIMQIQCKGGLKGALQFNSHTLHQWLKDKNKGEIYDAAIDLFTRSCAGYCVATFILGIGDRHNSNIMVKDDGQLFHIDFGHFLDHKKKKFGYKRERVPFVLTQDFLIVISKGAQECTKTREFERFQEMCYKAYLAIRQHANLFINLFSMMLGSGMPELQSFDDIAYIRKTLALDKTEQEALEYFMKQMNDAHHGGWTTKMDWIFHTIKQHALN
Assay: PI3K-alpha kinase (PIK3CA) in vitro cell based assay, MDA-MB-453 cells, SureFire Ultra AlphaLisa
Details: read-out: PI3K-α (PIK3CA) in vitro cell based assay IC50
pIC50: −log10 of the molar value.

Task: Request the reported pIC50 associated with Cc1cc(C(C)Nc2ccccc2C(=O)O)c2oc(-c3cnn4cccnc34)cc(=O)c2c1 (single isomer, unassigned) [Example 33]
Output: < 6.30

Task: For Cc1cc(C(C)Nc2ccccc2C(=O)O)c2oc(-c3ccc4c(cnn4C)c3)cc(=O)c2c1 (single isomer, unassigned) [Example 26] , what is its reported pIC50?
Output: > 7.30

Task: So what does the record say about pIC50 for Cc1cc([C@@H](C)Nc2ccc(Cl)cc2C(=O)O)c2oc(-c3ccc4cnn(C)c4c3)cc(=O)c2c1 [Example 237] ?
Output: 7.00 to 7.30

Task: Requested read-out: pIC50. Entry: Cc1cc(C(C)Nc2ccccc2C(=O)O)c2oc(-c3cccc4nn(C)cc34)cc(=O)c2c1 (single isomer, unassigned) [Example 111]
Output: 6.30 to 7.00

Task: Name the recorded pIC50 for Cc1cc(C(C)Nc2ccccc2C(=O)O)c2oc(-c3cccc4cn(C)nc34)cc(=O)c2c1 (single isomer, unassigned) [Example 116] .
Output: 6.30 to 7.00

Task: What value of pIC50 has been recorded for this entry: Cc1cc(C(C)Nc2ccccc2C(=O)O)c2oc(-c3cc4ccccc4[nH]3)c(C)c(=O)c2c1 (single isomer, unassigned) [Example 52]
Output: > 7.30

Task: GET /values?readout=pIC50&item= Cc1cc(C(C)Nc2cccc(F)c2C(=O)O)c2oc(-c3ccc4nn(C)cc4c3)cc(=O)c2c1 (single isomer, unassigned) [Example 171]
Output: < 6.30

Task: I'd like to know its pIC50. The molecule in question is Cc1cc([C@@H](C)Nc2cccc(F)c2C(=O)O)c2oc(-c3ccc4nc(C)cn4c3)cc(=O)c2c1 [Example 228]
Output: 6.30 to 7.00

---

Biological target: PI3K-α (PIK3CA) H1047R mutant, p110α/p85α complex (Homo sapiens, UniProt P42336, H1047R)
Construct: Recombinant, catalytically active human full length PIK3KA Wild-type and H1047R mutant; 6×His (N); purchased EMD Millipore Sigma 14-792M
Sequence (P42336 whole entry H1047R): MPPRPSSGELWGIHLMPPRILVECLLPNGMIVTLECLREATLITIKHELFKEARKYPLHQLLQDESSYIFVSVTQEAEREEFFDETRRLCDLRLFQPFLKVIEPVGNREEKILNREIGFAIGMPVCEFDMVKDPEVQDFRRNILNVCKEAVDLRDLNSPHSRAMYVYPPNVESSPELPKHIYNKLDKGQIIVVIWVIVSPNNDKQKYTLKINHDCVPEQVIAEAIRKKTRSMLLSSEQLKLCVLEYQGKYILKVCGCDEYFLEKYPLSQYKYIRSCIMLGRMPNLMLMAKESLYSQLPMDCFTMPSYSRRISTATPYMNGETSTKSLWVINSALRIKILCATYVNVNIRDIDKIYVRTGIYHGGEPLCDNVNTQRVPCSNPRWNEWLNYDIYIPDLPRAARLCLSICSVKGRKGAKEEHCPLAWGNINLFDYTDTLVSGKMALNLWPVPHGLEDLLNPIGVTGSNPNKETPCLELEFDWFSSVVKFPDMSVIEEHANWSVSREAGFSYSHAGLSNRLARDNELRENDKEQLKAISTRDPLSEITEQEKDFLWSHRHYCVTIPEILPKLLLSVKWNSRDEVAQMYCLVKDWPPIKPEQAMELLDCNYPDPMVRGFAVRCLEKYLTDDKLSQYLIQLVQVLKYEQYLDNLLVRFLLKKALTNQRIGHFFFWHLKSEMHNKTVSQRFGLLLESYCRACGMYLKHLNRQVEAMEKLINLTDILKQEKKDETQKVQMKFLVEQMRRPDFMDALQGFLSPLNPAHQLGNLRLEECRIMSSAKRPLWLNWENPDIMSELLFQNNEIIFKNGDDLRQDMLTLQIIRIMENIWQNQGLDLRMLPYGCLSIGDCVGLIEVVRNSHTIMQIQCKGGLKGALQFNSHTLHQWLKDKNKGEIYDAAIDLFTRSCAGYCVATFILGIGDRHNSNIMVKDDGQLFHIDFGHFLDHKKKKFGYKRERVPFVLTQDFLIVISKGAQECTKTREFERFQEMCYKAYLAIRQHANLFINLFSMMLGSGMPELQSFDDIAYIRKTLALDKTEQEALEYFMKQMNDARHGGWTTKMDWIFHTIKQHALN
Sequence (P27986 whole entry partner): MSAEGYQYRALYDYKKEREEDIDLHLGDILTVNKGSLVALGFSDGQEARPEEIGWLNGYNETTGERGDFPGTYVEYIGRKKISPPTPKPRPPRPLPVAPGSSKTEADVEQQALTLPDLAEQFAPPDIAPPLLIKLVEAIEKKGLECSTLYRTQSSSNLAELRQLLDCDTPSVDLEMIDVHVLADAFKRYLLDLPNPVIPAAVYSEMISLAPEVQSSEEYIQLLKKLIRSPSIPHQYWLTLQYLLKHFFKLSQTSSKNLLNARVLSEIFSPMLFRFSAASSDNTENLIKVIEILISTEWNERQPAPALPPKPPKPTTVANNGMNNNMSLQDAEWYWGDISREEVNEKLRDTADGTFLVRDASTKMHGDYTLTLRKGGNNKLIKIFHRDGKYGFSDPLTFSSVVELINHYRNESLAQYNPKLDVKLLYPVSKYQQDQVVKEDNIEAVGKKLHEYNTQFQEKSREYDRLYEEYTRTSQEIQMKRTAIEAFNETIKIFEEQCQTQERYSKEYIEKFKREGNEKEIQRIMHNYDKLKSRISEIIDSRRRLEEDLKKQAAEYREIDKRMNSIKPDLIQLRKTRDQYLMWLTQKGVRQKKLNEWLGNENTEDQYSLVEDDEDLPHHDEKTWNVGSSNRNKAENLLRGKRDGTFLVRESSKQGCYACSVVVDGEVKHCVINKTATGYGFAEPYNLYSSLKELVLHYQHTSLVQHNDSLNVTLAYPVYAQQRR
Assay: PI3K-alpha kinase (PIK3CA) biochemical activity, ADP-Glo, H1047R mutant
Details: Soy PI lipid substrate
Observation type: IC50

Task: State the recorded IC50 for this entry: Cc1cc(C(C)Nc2ccccc2C(=O)O)c2oc(-c3cccc4nn(C)cc34)cc(=O)c2c1 (single isomer, unassigned) [Example 111]
Output: < 500 nM

Task: Look up IC50 for this compound: Cc1cc(C(C)Nc2ccccc2C(=O)O)c2oc(-c3cc(Cl)c4nn(C)cc4c3)cc(=O)c2c1 (single isomer, unassigned) [Example 95]
Output: < 500 nM

Task: Reported IC50, compound Cc1nc2ccc(-c3cc(=O)c4cc(C(F)(F)F)cc(C(C)Nc5ccc(Cl)nc5C(=O)O)c4o3)cc2s1 (single isomer, unassigned) [Example 167] : ____
Output: < 500 nM
